Biological target: tnPXR (Tetraodon PXR, GAL4/LBD) (Tetraodon nigroviridis, UniProt H3D8U6)
Construct: cloned from liver RNA
Sequence (H3D8U6 123-404): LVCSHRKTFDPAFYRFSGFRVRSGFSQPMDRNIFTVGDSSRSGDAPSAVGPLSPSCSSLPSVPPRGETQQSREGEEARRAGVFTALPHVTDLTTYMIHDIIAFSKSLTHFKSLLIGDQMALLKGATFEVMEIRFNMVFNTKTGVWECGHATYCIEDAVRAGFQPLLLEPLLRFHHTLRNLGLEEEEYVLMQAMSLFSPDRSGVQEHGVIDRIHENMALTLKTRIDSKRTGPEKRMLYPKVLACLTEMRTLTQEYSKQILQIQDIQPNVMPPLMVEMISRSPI
Assay: cell-based
Set-up: GAL4/LBD chimera luciferase transactivation, normalised to beta-galactosidase, efficacy relative to maximal activator
Conditions: HepG2-NTCP; relative to 50 uM 5α-androstan-3α-ol; read-out: Efficacy
Readings of Emax for the listed compounds

compound	subjectOfTest	unitAbbreviation	Emax
C[C@H](CCC(=O)O)[C@H]1CC[C@H]2[C@@H]3[C@H](O)C[C@@H]4C[C@H](O)CC[C@]4(C)[C@H]3CC[C@]12C [CDCA, 3α,7α-dihydroxy-5β-cholan-24-oic acid]	tnPXR (Tetraodon PXR, GAL4/LBD) (Tetraodon nigroviridis, UniProt H3D8U6)	%	38
C[C@H](CCC(=O)NCCS(=O)(=O)O)[C@H]1CC[C@H]2[C@@H]3CC[C@@H]4C[C@H](O)CC[C@]4(C)[C@H]3CC[C@]12C	tnPXR (Tetraodon PXR, GAL4/LBD) (Tetraodon nigroviridis, UniProt H3D8U6)	%	29
C[C@H](CCC(=O)O)[C@H]1CC[C@H]2[C@@H]3CC[C@@H]4C[C@H](O)CC[C@]4(C)[C@H]3CC[C@]12C [LCA, 3α-hydroxy-5β-cholan-24-oic acid]	tnPXR (Tetraodon PXR, GAL4/LBD) (Tetraodon nigroviridis, UniProt H3D8U6)	%	10

====

Biological target: tnPXR (Tetraodon PXR, GAL4/LBD) (Tetraodon nigroviridis, UniProt H3D8U6)
Construct: cloned from liver RNA
Parameters: species or system HepG2-NTCP; GAL4/LBD chimera luciferase transactivation, normalised to beta-galactosidase, efficacy relative to maximal activator
Settings: agonist
Readings of EC50 for the listed compounds

compound	EC50 / µM
C[C@]12CCC(=O)C=C1CC[C@@H]1[C@@H]2C(=O)C[C@@]2(C)[C@H]1CC[C@]2(O)C(=O)CO	12.2
CC(=O)[C@H]1CC[C@H]2[C@@H]3CC=C4C[C@@H](O)CC[C@]4(C)[C@H]3CC[C@]12C	3.3
C[C@H](CCC(=O)O)[C@H]1CC[C@H]2[C@@H]3CC[C@@H]4C[C@H](O)CC[C@]4(C)[C@H]3CC[C@]12C [LCA, 3α-hydroxy-5β-cholan-24-oic acid]	81
C[C@H](CCC(=O)O)[C@H]1CC[C@H]2[C@@H]3CC[C@@H]4C[C@H](O)CC[C@]4(C)[C@H]3C[C@H](O)[C@]12C	9
C[C@]12CC[C@@H]3c4ccc(O)cc4CC[C@H]3[C@@H]1CC[C@@H]2O	9.6
CC(=O)[C@H]1CC[C@H]2[C@@H]3CCC4=CC(=O)CC[C@]4(C)[C@H]3CC[C@]12C	8.9

====

Target: tnVDR (Tetraodon VDR alpha, GAL4/LBD) (Tetraodon nigroviridis, UniProt A0A0A1CGS5)
Construct: gene VDRa; cloned from liver RNA
Sequence (A0A0A1CGS5 91-420): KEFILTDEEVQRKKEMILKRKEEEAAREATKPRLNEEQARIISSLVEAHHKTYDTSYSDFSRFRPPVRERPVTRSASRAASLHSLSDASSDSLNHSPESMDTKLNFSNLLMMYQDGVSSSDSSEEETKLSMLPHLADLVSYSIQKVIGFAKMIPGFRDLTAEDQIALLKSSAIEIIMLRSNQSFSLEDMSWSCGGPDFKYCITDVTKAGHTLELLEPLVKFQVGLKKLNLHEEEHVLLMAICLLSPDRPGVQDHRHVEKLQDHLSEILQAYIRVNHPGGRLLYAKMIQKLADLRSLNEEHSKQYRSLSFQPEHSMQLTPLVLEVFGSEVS
Assay: cell-based
Parameters: GAL4/LBD chimera luciferase transactivation, normalised to beta-galactosidase, efficacy relative to maximal activator
Details: HepG2-NTCP; relative to 200 nM 1α,25-(OH)2-vitamin D3; read-out: Efficacy
assayMetric: Emax (%)

molecule	experimentalValue
C[C@H](CCC(=O)O)[C@H]1CC[C@H]2[C@@H]3CC[C@@H]4CC(=O)CC[C@]4(C)[C@H]3CC[C@]12C	17
CC(=O)O[C@@H]1CC[C@@]2(C)[C@H](CC[C@@H]3[C@@H]2CC[C@]2(C)[C@@H]([C@H](C)CCC(=O)O)CC[C@@H]32)C1 [LCA acetate]	61
C[C@H](CCC(=O)O)[C@H]1CC[C@H]2[C@@H]3CC[C@@H]4C[C@H](O)CC[C@]4(C)[C@H]3CC[C@]12C [LCA, 3α-hydroxy-5β-cholan-24-oic acid]	12

Hello, the source for this data is paper PMC3042382, in case you need it.
